Would you kindly list pKd for each of these binders?
- assayed-target: hemagglutinin (HA) of influenza B virus B/Florida (Yamagata lineage) (influenza B virus B/Florida/06 …)
- method-summary: ForteBio Octet; antigen on the sensor, varying antibody concentrations
Quick note: pKd values are minus log10 of concentrations in mol/L.

// query Bench note: what pKd did TRL848 (antibody, V domains shown) VH: QVQLLESGGDVVQPGTSLRLSCAASGFSLWTSGMHWVRQAPGKGLEWVAVMSYDETKKYYADSVRGRFSISRDNSRNTLYLQMNSLRVEDTAVYFCAKPRLDYLDYFHAADSWGQGTLVSVSS VL: DIVLTQPPSVSVAPGQTATITCGGNYIGSKSVNWYQQRPGHAPVLVVYDDSDRPSGIPDRFSGSNSRSTATTATLTISRVEAGDEADYYCQVWETSEDLWVFGGGTKLTVLG show?
// result 8.41

// query Consider the binder TRL847 (antibody, V domains shown) VH: QVQLVESGGGLVQPGGSLRLSCVASGFTFSRFSMNWVRQAPGMGLEWVSYISDTGRTIYYADSVKGRFTISRDNDKNTLYLQMKSLRDEDSAFYYCARDPDTPFVRAFDSWGQGVLVTVSS VL: DIVMTQSPSFLSASVGDRVTITCRTSQVISSYLAWYQQRPGKAPKLLIYAASTLQSGVPSRFSGSGSGTRFSLTISNLQPEDFATYFCQQLTTYPPITFGQGTRLEIKR and give its measured pKd.
// result 9.15

// query GET /values?readout=pKd&item= TRL842 (antibody, V domains shown) VH: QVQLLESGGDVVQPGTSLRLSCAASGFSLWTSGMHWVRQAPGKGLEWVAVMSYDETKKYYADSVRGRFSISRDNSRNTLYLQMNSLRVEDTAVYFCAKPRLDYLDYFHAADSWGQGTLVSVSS VL: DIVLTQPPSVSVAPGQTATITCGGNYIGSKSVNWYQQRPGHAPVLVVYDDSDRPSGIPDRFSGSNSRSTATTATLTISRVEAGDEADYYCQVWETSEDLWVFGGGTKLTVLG
// result 8.60
